Experiment: Pharmacokinetic test of microspheres containing terpenoid derivative (III) in rabbit eye
Type: in vivo
Details: male, Kbl:NZW (white rabbit), intravitreal fluid, other: intravitreal, Day 1, intravitreal 50 μL of 3 mM suspension, mean of 4 eyes and SD
valueKind: concentration at 1 day (nM)
Write the answer as a number in nM, unit excluded.

Request the reported concentration at 1 day associated with COC(=O)[C@@]12CC[C@]3(C)[C@H](C(=O)C=C4[C@@]5(C)[C@H]6O[C@@]6(C#N)C(=O)C(C)(C)[C@@H]5CC[C@]43C)[C@@H]1CC(C)(C)[C@@H](O)C2 [terpenoid derivative (III)]
79700

###

Test: Pharmacokinetic test of microspheres containing terpenoid derivative (III) in rabbit eye
Format: in vivo
Conditions: male, Kbl:NZW (white rabbit), intravitreal fluid, other: intravitreal, Day 7, intravitreal 50 μL of 3 mM suspension, mean of 4 eyes and SD
valueKind: concentration at 7 day
Answer by giving the amount and then stating its unit.

What concentration at 7 day value was documented for this compound, COC(=O)[C@@]12CC[C@]3(C)[C@H](C(=O)C=C4[C@@]5(C)[C@H]6O[C@@]6(C#N)C(=O)C(C)(C)[C@@H]5CC[C@]43C)[C@@H]1CC(C)(C)[C@@H](O)C2 [terpenoid derivative (III)] ?
0.1 nM

###

Assay: Pharmacokinetic test of microspheres containing terpenoid derivative (III) in rabbit eye
Type: in vivo
Conditions: male, Kbl:NZW (white rabbit), intravitreal fluid, other: intravitreal, Day 2, intravitreal 50 μL of 3 mM suspension, mean of 4 eyes and SD
valueKind: concentration at 2 day (nM)
Just the number in nM, nothing appended.

Endpoint output: concentration at 2 day of COC(=O)[C@@]12CC[C@]3(C)[C@H](C(=O)C=C4[C@@]5(C)[C@H]6O[C@@]6(C#N)C(=O)C(C)(C)[C@@H]5CC[C@]43C)[C@@H]1CC(C)(C)[C@@H](O)C2 [terpenoid derivative (III)] . Value?
0.1

The measurements presented in this section are drawn from patent US10208082B2.
